settings: 363.15 K; 101.33 kPa; Liquid; Falling or rolling sphere viscometry
assay-metric: viscosity (mPa·s)
Give bare numbers, in mPa·s.

A selection of reference data follows.
Form: molecule = CCCCn1cc[n+](C)c1.CCOS(=O)(=O)[O-] [1-butyl-3-methyl-1H-imidazolium ethyl sulfate] ; viscosity = 19.11

Form: molecule = `CCn1cc[n+](C)c1.O=S(=O)([N-]S(=O)(=O)C(F)(F)F)C(F)(F)F` ; viscosity = 6.65

Form: molecule = CCCCn1cc[n+](C)c1.O=S(=O)([O-])C(F)(F)F [1-butyl-3-methylimidazolium trifluoromethanesulfonate] ; viscosity = 10.73

Form: molecule = CCCCn1cc[n+](C)c1.F[P-](F)(F)(F)(F)F [1-butyl-3-methylimidazolium hexafluorophosphate] ; viscosity = 18.03

Could you now consider this next molecule?
Form: molecule = `CCCC[n+]1ccn(C)c1.O=S(=O)([N-]S(=O)(=O)C(F)(F)F)C(F)(F)F` ; viscosity = 7.38
